Data origin, for the record: the Kinase Knowledgebase extract (Sharma et al. 2016)

# TEST_TARGET: CDK2 (UniProt P24941)
# RUN_DESCRIPTION: Enzyme Assay
# STUDY_CONDITIONS: concentration not given here
READOUT_KIND: inhibition

1. COC(=O)c1ccc(Nc2nc3c4c(ccc3[nH]2)NC(=O)/C4=C\c2[nH]ccc2OC)cc1 | < 50%
2. COc1cc[nH]c1/C=C1\C(=O)Nc2ccc3nc(NCc4ccc5c(c4)OCO5)[nH]c3c21 | < 50%
3. COc1ccc(Nc2nc3c4c(ccc3[nH]2)NC(=O)/C4=C\c2[nH]ccc2OC)cc1OC | < 50%

---

# CDK2 (UniProt P24941): pIC50 values follow
pIC50: −log10 of the molar value.
READOUT_KIND: pIC50

1) COc1cc[nH]c1/C=C1\C(=O)Nc2ccc3[nH]c(-c4ccc(C(=O)O)cc4)nc3c21 | > 5.46
2) Cc1nc[nH]c1/C=C1\C(=O)Nc2ccc([N+](=O)[O-])c(N=[N+]=[N-])c21 | > 5.46
3) COc1cc[nH]c1/C=C1\C(=O)Nc2ccc3[nH]c(C)nc3c21 | > 5.46
